Catalogue of Binding to captured heparanase values
- System: T1, recombinant heparanase captured with rabbit anti-heparanase antibody (Homo sapiens, UniProt Q9Y251)
- T1 construct: Heparanase 8 and 50 kDa sub-units were cloned into pacGP67 as Sma 1-EcoR1 fragments; made in house; host or cells: Hi5 insect cells, baculovirus (pFastBac Dual)
- T1 sequence (Q9Y251 158-543 limits assumed): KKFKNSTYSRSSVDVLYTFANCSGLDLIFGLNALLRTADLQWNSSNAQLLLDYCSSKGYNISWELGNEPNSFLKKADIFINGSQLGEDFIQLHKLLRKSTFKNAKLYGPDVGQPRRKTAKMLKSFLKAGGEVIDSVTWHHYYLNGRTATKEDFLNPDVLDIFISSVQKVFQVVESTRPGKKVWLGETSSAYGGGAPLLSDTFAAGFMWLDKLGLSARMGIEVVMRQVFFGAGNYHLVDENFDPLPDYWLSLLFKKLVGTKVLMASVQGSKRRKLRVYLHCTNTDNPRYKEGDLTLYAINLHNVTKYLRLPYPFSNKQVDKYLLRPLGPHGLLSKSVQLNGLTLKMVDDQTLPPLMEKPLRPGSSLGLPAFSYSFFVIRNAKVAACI
- T1 sequence (Q9Y251 36-109 limits assumed): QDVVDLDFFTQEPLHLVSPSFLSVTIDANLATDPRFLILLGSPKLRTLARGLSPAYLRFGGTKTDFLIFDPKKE
- Assay comment: ELISA binding to antibody-captured heparanase
- Condition set: antibody capture
The answer is to be given in OD units; state only the numeric part.

>  <Molecule>
14H12.3: human anti-heparanase monoclonal antibody, G2λ; VH SEQ ID NO 26, VL SEQ ID NO 28 (antibody, listed as Homo Sapiens, V domains shown) VH: QVQLVESGGGVVQPGRSLRLSCAASGFTFSSYGMHWVRQAPGKGLEWVAVIWYDGSNKDYADSVKGRFTISRDNSKNTLYLQMNSLRAEDTAVYYCAREGSTSWTDYYGMDVWGQGTTVTVSS VL: SYELTQPPSVSVSPGQTARITCSGDALPKRYAYWYQQKSGQALVLVIYEDSKRPSGIPERFSGSSSGTMATLTISGAQVEDEADYYCYSIDSSGNHGVFGGGTKLTVL

>  <Unit text>
OD units

>  <Binding to captured heparanase>
3.27

$$$$

Give the value of Binding to captured heparanase reported for the following: 7B9.1: human anti-heparanase monoclonal antibody, G4λ; VH SEQ ID NO 22, VL SEQ ID NO 24 (antibody, listed as Homo Sapiens, V domains shown) VH: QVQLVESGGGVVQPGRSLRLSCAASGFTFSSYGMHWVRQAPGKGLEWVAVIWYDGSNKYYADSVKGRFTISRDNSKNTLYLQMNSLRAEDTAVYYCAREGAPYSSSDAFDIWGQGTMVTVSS VL: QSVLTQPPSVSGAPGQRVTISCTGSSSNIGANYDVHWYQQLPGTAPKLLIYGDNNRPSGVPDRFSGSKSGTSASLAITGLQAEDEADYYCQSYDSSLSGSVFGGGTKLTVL
6.0
